- experimental_target: rat TAAR1 (Rattus norvegicus)
- Construct: expressed in transfected cells; host or cells: HEK293 (ATCC # CRL-1573), stably transfected with pIRESneo2 expression plasmid
- test_details: TAAR1 radioligand binding with [3H]-rac-2-(1,2,3,4-tetrahydro-1-naphthyl)-2-imidazoline, membranes of stably transfected HEK293 cells
- run_parameters: second value of the cell, read-out: Ki (μM) mouse/rat: rat
reported_metric: log10(Ki) (log10 of the value in µM)
Give log10 of Ki, with Ki taken in µM.

// known answers, use as guide
NC1=N[C@@H](CCc2ccc(NC(=O)c3cccc(Cl)c3)cc2)CO1 [Example 18]
-3.70
COc1ncccc1C(=O)Nc1ccc(CC[C@H]2COC(N)=N2)cc1 [Example 115]
-2.62

Give recorded log10(Ki) with rat TAAR1 (Rattus norvegicus) for the following compound: NC1=N[C@@H](CCc2ccc(NC(=O)C3CC(F)(F)C3)cc2)CO1 [Example 44]
-2.85

Moving on to the next compound: CC(C)c1cc(C(=O)Nc2ccc(CC[C@H]3COC(N)=N3)cc2)ccn1 [Example 198]
-2.54

// next record CC(C)c1sc(N(C)C)nc1C(=O)Nc1ccc(CC[C@H]2COC(N)=N2)cc1 [Example 189]
-2.74

###

- experimental_target: mouse TAAR1 (Mus musculus)
- Construct: expressed in transfected cells; host or cells: HEK293 (ATCC # CRL-1573), stably transfected with pIRESneo2 expression plasmid
- Sequence (Q923Y8 whole entry): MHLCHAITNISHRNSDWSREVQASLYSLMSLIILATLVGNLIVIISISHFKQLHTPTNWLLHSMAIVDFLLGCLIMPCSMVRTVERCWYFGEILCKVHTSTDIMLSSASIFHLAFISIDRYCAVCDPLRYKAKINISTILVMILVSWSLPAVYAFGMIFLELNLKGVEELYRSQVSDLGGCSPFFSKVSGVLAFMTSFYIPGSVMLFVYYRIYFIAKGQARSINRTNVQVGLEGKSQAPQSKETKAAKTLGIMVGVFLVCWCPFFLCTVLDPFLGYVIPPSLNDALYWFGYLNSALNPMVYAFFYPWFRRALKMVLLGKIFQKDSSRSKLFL
- test_details: TAAR1 radioligand binding with [3H]-rac-2-(1,2,3,4-tetrahydro-1-naphthyl)-2-imidazoline, membranes of stably transfected HEK293 cells
- run_parameters: first value of the cell, read-out: Ki (μM) mouse/rat: mouse
reported_metric: Ki (µM)
Reply with just the number (in µM).

COc1ncc(C(=O)Nc2ccc(CC[C@H]3COC(N)=N3)cc2)cn1
0.0074
NC1=N[C@@H](CCc2ccc(NC(=O)Nc3ccc(Cl)c(Cl)c3)cc2)CO1
0.0001
CC(C)c1ocnc1C(=O)Nc1ccc(CC[C@H]2COC(N)=N2)cc1
0.0012

Now, please, on to the next compound.
Given the entry NC1=N[C@@H](CCc2ccc(NC(=O)c3nccc4ccccc34)cc2)CO1 , report its measured Ki.
0.0016

###

- experimental_target: rat TAAR1 (Rattus norvegicus, UniProt Q923Y9)
- Construct: expressed in transfected cells; host or cells: HEK293 (ATCC # CRL-1573), stably transfected with pIRESneo2 expression plasmid
- Sequence (Q923Y9 whole entry): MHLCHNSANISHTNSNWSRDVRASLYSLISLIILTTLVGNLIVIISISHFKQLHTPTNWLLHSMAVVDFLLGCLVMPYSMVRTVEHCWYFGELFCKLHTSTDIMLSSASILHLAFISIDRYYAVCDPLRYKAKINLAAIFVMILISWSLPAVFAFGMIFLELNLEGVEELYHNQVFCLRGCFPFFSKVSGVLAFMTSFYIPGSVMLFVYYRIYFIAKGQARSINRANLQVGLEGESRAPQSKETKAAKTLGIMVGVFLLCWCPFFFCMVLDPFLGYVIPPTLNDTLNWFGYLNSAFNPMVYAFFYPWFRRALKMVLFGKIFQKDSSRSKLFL
- test_details: TAAR1 radioligand binding with [3H]-rac-2-(1,2,3,4-tetrahydro-1-naphthyl)-2-imidazoline, membranes of stably transfected HEK293 cells
- run_parameters: second value of the cell, read-out: Ki (μM) mouse/rat: rat
reported_metric: Ki (µM)
Numeric only. Scale: µM

Example compounds with recorded Ki:
C#Cc1ccc(C(=O)Nc2ccc(CC[C@H]3COC(N)=N3)cc2)cc1
0.0005
NC1=N[C@@H](CCc2ccc(NC(=O)Cc3ccc(Cl)cc3)cc2)CO1
0.001
N#Cc1ccc(C(=O)Nc2ccc(CC[C@H]3COC(N)=N3)cc2)cc1
0.0022
NC1=N[C@@H](CCc2ccc(NC(=O)c3cccc(F)n3)cc2)CO1
0.0014

Item under review: CCc1cnc(C(=O)Nc2ccc(CC[C@H]3COC(N)=N3)cc2)cn1 . Reported Ki?
0.0023

# iterate: CC(C)c1cncc(C(=O)Nc2ccc(CC[C@H]3COC(N)=N3)cc2)n1
0.0016

Please give the result for N#Cc1ccc(C(=O)Nc2ccc(CC[C@H]3COC(N)=N3)cc2)nc1 too.
0.0044

The values you see were collected from patent US8354441B2.
